- Tested on: Nucleic Acid
- protocol summary: The compound was evaluated for binding affinity towards calf thymus DNA.
- Type: nucleic-acid assay
- experimental conditions: Bos taurus
measured endpoint: C50 (µM)

CCCCCCCCCCCCCCCC(=O)NCCCNCCCNCCCCNCCCN ... 0.9
CCCCCCCC/C=C/CCCCCCCC(=O)NCCCNCCCCNCCCN ... 1.29
CCCCCCCCCCCCCCCC(=O)NCCCNCCCCNCCCN ... 1.35
CCCCCCCCCCCCCCCCCC(=O)NCCCNCCCCNCCCN ... 1.27
